The reported numbers originate from the supplement of paper PMC10646978.

Tested on: RAW-Dual (murine macrophage reporter line)
experimental-protocol: viability score (confluency relative to resting cells, overnight) (fraction); higher = more viable, active = viable (0.7 or more)
test-context: modulator concentration 10 µM
Listing of recorded viability score by entry.
# answer = number (no unit)

Example entries begin here.
molecule	experimental-value
O=C(CCC(=O)NN=Cc1ccc(O)cc1)NN=Cc1ccc(O)cc1	1
NC[C@@H]1O[C@H](O[C@@H]2[C@@H](CO)OC(O[C@@H]3[C@@H](O)[C@H](N)C[C@H](N)[C@H]3O[C@H]3O[C@H](CN)[C@@H](O)[C@H](O)[C@H]3N)[C@@H]2O)[C@H](N)[C@@H](O)[C@@H]1O.O=S(=O)(O)O (stereo partly specified)	1
CC(=O)O.CCN(CC)CC#CC1(O)CCCCC1	1.01
COc1cccc(-c2csc(C(C#N)=CNc3cc(Cl)ccc3OC)n2)c1	1.01
Cc1cc(N2CCCCC2)nc2ccccc12	0.293

Which viability score is listed for CCOC(=O)C1=C(C)NC(C)=C(C(=O)OCC)C1c1ccco1 ?
0.996

Which viability score is reported for this molecule? CCOc1ccc(CC(=O)NC2(c3nc(-c4ccccc4)no3)CCCCC2)cc1OCC
0.979

Which measured viability score value corresponds to Cc1ncc(CC(=O)N2CCC(c3ccccc3F)S(=O)(=O)CC2)s1 (stereo unspecified) ?
1.01

* * *

Test system: RAW-Dual (murine macrophage reporter line)
experimental-protocol: NF-kB reporter (SEAP) activity fold change vs agonist alone; higher = enhanced NF-kB activity
test-context: modulator concentration 10 µM; agonist: CpG ODN 1826 0.5 ug/mL
Consider the following partition of reported NF-kB reporter into named classes: band 1 (below 0.8), band 2 (0.8 to below 1), band 3 (1 or more)

Consider the following illustrative entries.
> print(dat)
                                   molecule                         target.under.test  class.assignment
1  CCOC(=O)C1=C(C)NC(C)=C(C(=O)OC)C1c1ccc(Cl)cc1 (configuration not stated)  RAW-Dual (murine macrophage reporter line)            band 1
2  Cc1cccc(Sc2nccn3c(=O)n(CC(=O)N4CCN(c5ccccc5)CC4)nc23)c1  RAW-Dual (murine macrophage reporter line)            band 2

We next turn to a different molecule, shown below.
Categorize the following entry: CSc1nc2ccc(Nc3nc(N4CCCC4)nc(N4CCCC4)n3)cc2s1
band 2

* * *

Test system: RAW-Dual (murine macrophage reporter line)
experimental-protocol: IRF reporter (Lucia luciferase) activity fold change vs agonist alone; higher = enhanced IRF activity
test-context: modulator concentration 10 µM; agonist: LPS 0.1 ug/mL
Listing: IRF reporter of selected compounds
Answer as a number with no unit attached.

Examples from the recorded data:
> print(dat)
                                   compound                         target.under.test  experimental.value
1          CN(C)c1ccc(C2N(C)c3ccccc3N2C)cc1  RAW-Dual (murine macrophage reporter line)                1.88
2    N=C1NC(=O)C(=Cc2ccc(-c3ccc(F)cc3)o2)S1  RAW-Dual (murine macrophage reporter line)               0.989
3  COc1ccc([C@@H]2Sc3ccccc3N(CCN(C)C)C(=O)[C@@H]2OC(C)=O)cc1.Cl  RAW-Dual (murine macrophage reporter line)               0.997
4      O=S(=O)(N=Cc1c(O)ccc2ccccc12)c1cccs1  RAW-Dual (murine macrophage reporter line)               0.988
5  CC(=O)ON=C1C(C)=C(C#N)C2C1C2(C)C (stereo unspecified)  RAW-Dual (murine macrophage reporter line)               0.871

Item CC(=O)OCC(=O)NCCCOc1cccc(CN2CCCCC2)c1.Cl has what recorded IRF reporter?
1.42

* * *

Listed below: NF-kB reporter values for each entry.
System: RAW-Dual (murine macrophage reporter line)
experimental-protocol: NF-kB reporter (SEAP) activity fold change vs agonist alone; higher = enhanced NF-kB activity
test-context: modulator concentration 10 µM; agonist: MPLA […]
Lab note: write the figure by itself, no unit.

Recorded NF-kB reporter, per entry:
> print(dat)
                                   molecule  experimental.value
1  C#Cc1cccc(Nc2ncnc3cc4c(cc23)OCCOCCOCCO4)c1                1.11
2           O=C(NCCc1cn2ccccc2n1)c1ccccc1Br                1.03
3  C=CCn1c(-c2ccc(OC)cc2)cnc1SCC(=O)N1CCc2ccccc21                1.09

# query: NF-kB reporter of entry O=[N+]([O-])c1ccccc1S(=O)(=O)N1CCCC1
0.907

Query: NF-kB reporter; subject: COc1cc(NC(=O)COc2cc(C)c(Cl)c(C)c2)cc(OC)c1
0.854

Which NF-kB reporter reading was recorded for the molecule O=c1cc(-c2ccc(O)c(O)c2)oc2cc(O)cc(O)c12 ?
2

Which NF-kB reporter value belongs to O=C(CCc1ccc(O)cc1)c1c(O)cc(O)cc1OC1OC(CO)C(O)C(O)C1O (configuration not stated) ?
0.963

What value of NF-kB reporter has been recorded for this entry: COC(=O)C1=C(C)N(c2ccc(F)cc2)C(=O)C1
0.813

* * *

Tested on: RAW-Dual (murine macrophage reporter line)
experimental-protocol: NF-kB reporter (SEAP) activity fold change vs agonist alone; higher = enhanced NF-kB activity
test-context: modulator concentration 10 µM; agonist: CpG ODN 1826 0.5 ug/mL
quantity-measured: NF-kB reporter
Quick one: just the number, no unit, thanks!

Examples from the recorded data:
> print(dat)
                                    compound                         target.under.test  experimental.value
 1  CSCCC(NC(C)=O)C(=O)N1CCc2nc3ccc(Cl)cn3c(=O)c2C1 (stereo unspecified)  RAW-Dual (murine macrophage reporter line)                1.42
 2  CC(NC(=O)C(=O)Nc1ccc(F)cc1)c1ccccc1 (stereo unspecified)  RAW-Dual (murine macrophage reporter line)               0.972
 3  Cc1ccc(N2C(=O)CC(Nc3ccc(N4CCOCC4)cc3)C2=O)cc1 (stereo unspecified)  RAW-Dual (murine macrophage reporter line)                1.04
 4  Cl.Cl.O=C1c2c(O)ccc(O)c2C(=O)c2c(NCCNCCO)ccc(NCCNCCO)c21  RAW-Dual (murine macrophage reporter line)              0.0718
 5  COc1ccccc1NS(=O)(=O)c1cc2c3c(c1)CC(=O)N3CCC2  RAW-Dual (murine macrophage reporter line)               0.967
 6  NC(=O)c1cc(NC(=O)c2ccc(Cl)c(Cl)c2)cc(C(N)=O)c1  RAW-Dual (murine macrophage reporter line)                1.15
 7                   CCCCOc1ccc(CC(=O)NO)cc1  RAW-Dual (murine macrophage reporter line)                1.69
 8        NC(=O)Cn1c(COc2ccccc2Cl)nc2ccccc21  RAW-Dual (murine macrophage reporter line)                1.35
 9  CCOc1ccc(CN(CCc2ccc3c(c2)OCO3)Cc2cccc3ccccc23)cc1  RAW-Dual (murine macrophage reporter line)                0.73
10        CNCCCC12CCC(c3ccccc31)c1ccccc12.Cl  RAW-Dual (murine macrophage reporter line)               0.507

Now look at this one.
Notebook entry, RAW-Dual (murine macrophage reporter line) assay: NF-kB reporter of O=C(CSC1CC(=O)N(c2ccc(C(=O)O)cc2)C1=O)Nc1ccc(Cl)cc1 (stereo unspecified) = ?
0.921

* * *

Test system: RAW-Dual (murine macrophage reporter line)
experimental-protocol: NF-kB reporter (SEAP) activity fold change vs agonist alone; higher = enhanced NF-kB activity
test-context: modulator concentration 10 µM; agonist: LPS 0.1 ug/mL
Respond with 1 for NF-kB reporter values of 1 and above, 0 for values below.

The examples below pair each entry with its known result.
> print(dat)
                                compound  class.assignment
1       O=C(NC1CCCCC1)c1cccc(C(F)(F)F)c1                 1
2  Cc1ccc([N+](=O)[O-])cc1S(=O)(=O)N(C)C                 0

Hi team, for O=C(c1cc2cc(F)ccc2s1)N1CCc2ncncc2C1 , is the recorded NF-kB reporter at or above 1?
1

Assess whether reported NF-kB reporter for CO[C@@]12[C@H](COC(N)=O)C3=C(C(=O)C(C)=C(N)C3=O)N1C[C@@H]1N[C@@H]12 sits at 1 or higher.
1

Does the reported NF-kB reporter for Cl.NC12CC3CC(CC(C3)C1)C2 fall at or above the 1 mark?
1

Quick check, NF-kB reporter >= 1? Nc1ncnc2c1ncn2C1OC(COP(=O)(O)O)C(O)C1O (stereo not drawn)
1

Quick check, NF-kB reporter >= 1? CC(C)CC(C(=O)Nc1cccc(O)c1)N1C(=O)c2ccccc2C1=O (stereo not drawn)
1

Identify whether the reported NF-kB reporter of the following compound is 1 or greater: Cn1nc(-c2ccc(F)cc2)cc1C(=O)NCC1(CO)CC1
1

Given the entry CC(CN1c2ccccc2Sc2ccccc21)N(C)C.Cl (stereo not drawn) , answer whether its NF-kB reporter meets or surpasses 1.
1

Could you please find out whether NNc1ncnc2scc(-c3ccc(Cl)cc3)c12 has NF-kB reporter that meets 1 or exceeds it?
0

Has Nc1ccn(C2OC(CO)C(O)C2O)c(=O)n1 (stereo not drawn) a recorded NF-kB reporter greater than or equal to 1?
0

Is the recorded value of NF-kB reporter equal to or greater than 1 for this compound? CCCCCCOc1ccc(N2C(=O)CC(N3CCN(Cc4ccc5c(c4)OCO5)CC3)C2=O)cc1 (stereo not drawn)
1

Confirm if NF-kB reporter reported for the compound Cc1ccc(-c2cc(-c3ccccc3)nc(NN=Cc3ccc(Br)cc3)n2)cc1 is 1 or above.
1

Is it the case that CCC(C)n1ncn(-c2ccc(N3CCN(c4ccc(OC[C@H]5CO[C@](Cn6cncn6)(c6ccc(Cl)cc6Cl)O5)cc4)CC3)cc2)c1=O (stereo partly drawn) has NF-kB reporter reaching or exceeding 1?
1

Record CCOc1ccc(NC(=O)N2C3C=CCC2CC3)cc1 (stereo not drawn) ; criterion: NF-kB reporter no lower than 1. Met?
0

Answer whether NF-kB reporter of O=C(Cc1ccc(NC(=O)c2ccc(OC(F)(F)F)cc2)cc1)NCC(F)(F)F is greater than or equal to 1.
1

I'd appreciate it if you could say whether CN1CCN(C2CC(=O)N(c3ccc(N4CCOCC4)cc3)C2=O)CC1 (stereo not drawn) has NF-kB reporter at least equal to 1.
0
